Cited source for all entries: ChEMBL document CHEMBL5058577

Kindly supply the reported Population Pyknosed Nuclei (%) values for the records listed here.
Test system: Fibroblast
Test: Multiplex assay against human fibroblast
Format: toxicity, cell-based
Condition notes: 24 h, 1 µM, compound concentration 1 uM, replicate 2

Solved entries (count: 5):
C[C@H](NC(=O)CNC(=O)c1cccc(Cl)c1)c1ccccc1: 19%
COc1ccc2c(c1OCc1ccccc1)C[C@@H](C(=O)O)N(C(=O)C(c1ccccc1)c1ccccc1)C2 [OLODANRIGAN]: 25%
N[C@](CC1c2ccccc2Oc2ccccc21)(C(=O)O)[C@H]1C[C@@H]1C(=O)O: 22%
Nc1nc(CC(=O)Nc2ccc(CCNC[C@H](O)c3ccccc3)cc2)cs1 [MIRABEGRON]: 14%
CN1CCC(C(=O)c2cccc(NC(=O)c3c(F)cc(F)cc3F)n2)CC1: 21%

List the reported Population Pyknosed Nuclei (%) of each molecule below.
1. C=CCN1C[C@H](C(=O)N(CCCN(C)C)C(=O)NCC)C[C@@H]2c3cccc4[nH]cc(c34)C[C@H]21 [CABERGOLINE]
2. Cc1cc(O)c(-c2ccc([C@@H](C)CN(C)C)cc2)c2c1[nH]c(=O)c1sccc12
3. O=C(NCCNCC(O)COc1ccc(O)cc1)N1CCOCC1.O=C(NCCNCC(O)COc1ccc(O)cc1)N1CCOCC1.O=C(O)/C=C/C(=O)O (stereo not drawn) [XAMOTEROL FUMARATE]

1. 29%
2. 16%
3. 19%
